Each record here notes measured Cell Binding to Human PanT Signal/Background (of CD4 negative population).
- system-under-test: T1, human CD8 on human pan T cells (CD4-negative population) (human, UniProt P01732 22-235; P10966 22-210)
- T1 construct: whole, on cells; Endogenous CD8 on primary human pan T cells, read in the CD4-negative gate; also called CD8α/β
- T1 sequence (P01732 22-235, chain 1 of 2): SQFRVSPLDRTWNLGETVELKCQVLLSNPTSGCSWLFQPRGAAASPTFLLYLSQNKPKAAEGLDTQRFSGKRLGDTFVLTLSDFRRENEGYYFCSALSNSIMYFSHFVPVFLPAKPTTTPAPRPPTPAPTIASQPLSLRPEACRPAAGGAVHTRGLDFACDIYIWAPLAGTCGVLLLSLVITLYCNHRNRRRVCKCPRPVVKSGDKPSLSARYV
- T1 sequence (P10966 22-210, chain 2 of 2): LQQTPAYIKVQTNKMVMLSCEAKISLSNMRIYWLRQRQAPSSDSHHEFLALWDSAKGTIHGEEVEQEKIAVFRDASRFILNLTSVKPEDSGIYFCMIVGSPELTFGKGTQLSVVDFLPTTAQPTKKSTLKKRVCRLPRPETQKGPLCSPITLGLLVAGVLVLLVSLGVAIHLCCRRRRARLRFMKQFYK
- assay-method-text: flow cytometry, 20 nM antibody on human pan T cells, A647 anti-human IgG Fc; geomean ratio in CD4-negative population
endpoint-label: Cell Binding to Human PanT Signal/Background (of CD4 negative population)

binder: CD8B246 (antibody, human IgG1, kappa, V domains shown, Full-length human IgG1, kappa; V regions recovered from mouse hybridoma) VH: QVQLKESGPGILKPSQTLSLTCSFSGFSLSTSGMNVGWIRQPSGKGLEWLAHIWWDDDKYYNPSLKSQLTISKDTSRNQVFLKITSVDTADTATYYCARRGNYGNYEFAYWGQGTTLTVSS VL: DIQMTQTTSSLSASLGDRVTISCRASQDIRNYLNWYQQKPDGTVKLLIYHTSRLHSGVPSRFSGSGSGTDYSLTISNLEQEDIATYFCQQGNTLPWTFGAGTKLELKR
observed-value: 1110
--
binder: CD8B271 (antibody, human IgG1, kappa, V domains shown, Full-length human IgG1, kappa; V regions recovered from mouse hybridoma) VH: DVQLQESGPGLVAPSQSLSITCTVSGFSLSIYSIHWVRQPPGKGLEWLGMIWGGGDTDYNSALKSRLSISKDNSESQVFLKMNSLQTDDTAMYYCARNPHYYGGTYEYFDVWGTGTTVTVSS VL: DIQMTQTTSSLSASLGDRVTISCSASQGISNYLNWYQQKPDGTVKLLIYDTSILYSGVPSRFSGSGSGTDYSLTISNLEPEDVATYYCQQYSNLPYTFGSGTKLEIKR
observed-value: 911
--
binder: CD8B350 (antibody, human IgG1, kappa, V domains shown, Full-length human IgG1, kappa; V regions recovered from mouse hybridoma) VH: EVQLQQSGAELAKPGTSVKMSCKASGYTFAAYWINWLKQRPGQGLEWIGSINPSNGYTEYSQKFKDKAILTADKSSSTAYMQLSSLTSEDSAVYYCSRSGLYYTNHLAWCPYWGQGTTVTVSS VL: DIVMTQSPASLSASVGETVTITCRASGNIHNYLAWYQQKQGKSPQVLVYNAETLADSVPSRFSGSGSGTQFSLKINSLQPEDFGNYYCQHFWNSPLTFGGGTKLEIKR
observed-value: 537
--
binder: CD8B364 (antibody, human IgG1, kappa, V domains shown, Full-length human IgG1, kappa; V regions recovered from mouse hybridoma) VH: QVQLQQPGAELVKPGASVKLSCKASGYTFTSYWMHWVNRRPGQGLEWIGEINPSNGDSYYNEKFKRKATLTVDISSSTAYMQLSSLTSEDSAVYYCTRSMYYDGRAGAYWGQGTTVTVSS VL: DIVLTQSPASLSVATGEKVTIRCITSTDIDDDMNWYQQKPGEPPKLLISEGNTLRPGVPSRFSSSGYGTDFVFTIENTLSEDVADYYCLQSDNMPLTFGAGTKLELKR
observed-value: 1560
--
binder: CD8B269 (antibody, human IgG1, kappa, V domains shown, Full-length human IgG1, kappa; V regions recovered from mouse hybridoma) VH: DVQLQESGPGLVKPSQSLSLTCSVTGYSITSGYYWNWIRQFPGNKLEWMGYISYDGSNNYNPSLKNRISITRDTSKNQFFLKLNSVTTEDTATYYCVRNHGDAMDHWGQGTTLTVSS VL: DIVMTQSQKFMSTSVGDRVRVTCKASQNVGTDVAWYQQKPGQSPKALIYSASYRYSGVPDRFTGSGSGTDFTLTISDVQSEDLAEYFCQQYKSYPLTFGAGTKLELKR
observed-value: 26
--
binder: CD8B200 (antibody, human IgG1, kappa, V domains shown, Full-length human IgG1, kappa; V regions recovered from mouse hybridoma) VH: EVQLQQSGAELVKPGASVKLSCKASGYTFTNYWIHWVKQRPGQGLEWIGNIDPSDSETHYNQKFKDKATLTVDKSSSTAYMQLISLTSEDSAVYYCASGLTGTGYYWGQGTTLTVSS VL: DIQMTQTTSSLSASLGDRVTITCRASQDISPYLNWYQQKPEGTIKLLIYYTSKLHSGVPSRFSGSGSGTDYSLTISNLEQEDIATYFCQQDNTLPYTFGSGTKLELKR
observed-value: 1990
--
binder: CD8B251 (antibody, human IgG1, kappa, V domains shown, Full-length human IgG1, kappa; V regions recovered from mouse hybridoma) VH: QVQLKGSGPGLVQPSQSLSITCTVSGFSLTTYAVHWVRQSPGKGLEWLGVIWSGGSTDYNAAFISRLSISKDNSKSQVFFKMNSLQADDTAIYYCARHSYYHYNAMDNWGQGTSVTVSS VL: DIKMTQSQKFMSTTVGDRVSITCKASQNVGTAVAWYQQKPGQSPKLLIYSASNRYTGVPDRFTGSGSGTDFTLTISNMQSEDLADYFCQQYSSYPFTFGSGTKLEIKR
observed-value: 37
--
binder: CD8B273 (antibody, human IgG1, kappa, V domains shown, Full-length human IgG1, kappa; V regions recovered from mouse hybridoma) VH: QVQLQQSGAELVKPGASVKLSCKASGYTFTEYTIHWVKQRSGQGLEWIGWFYPGTGSIKYNEKFKDKATLTADKSSHTVYMELSKLTSEDSAVYFCARHEDNHYYDGNSWFAYWGQGTLVTVSA VL: DIQMTQSPASLSASVGETVTITCRASGNIHNYLAWFQQKQGKSPQLLVYNAKTLADGVPSRFSGSGSGTQYSLKINSLQAEDFGSYYCQHFWSTPYTFGSGTKLEIKR
observed-value: 938
--
binder: CD8B303 (antibody, human IgG1, kappa, V domains shown, Full-length human IgG1, kappa; V regions recovered from mouse hybridoma) VH: QVQLKESGPGLVAPSQSLSITCTVSGFSLSIYSIHWVRQPPGKGLEWLGMIWGGGSTDYNSTLNSRLSIIKDNSKSQVFLKMNSLQTDDTAMYYCARNPHHYGGSTGAMDYWGQGTTVTVSS VL: DVQMIQSPSSLSASLGGTVTITCKASQDIKKYMAWYQHKPGKGPRLLIHYTSSLQPGIPSRFSGSGSGRDYYFSISNLEPEDIATYFCLQYDNLFTFGSGTKLELKR
observed-value: 1180
--
binder: CD8B270 (antibody, human IgG1, kappa, V domains shown, Full-length human IgG1, kappa; V regions recovered from mouse hybridoma) VH: QVQLQQPGAELVKPGASVMLSCKASGYTFTNYWMHWVKQRPGQGLEWIGNIDPSDSETHYNQKFKDKATLTVDKSSSTAYMQLSSLTSEDSAVYYCASGLTGTGYYWGQGTTLTVSS VL: DIQMTQTTSSLSASLGDRVTITCRASQDIRPYLNWYQQKPEGTIKLLIYFTSKLHSGVPSRFSGSGSGTDYSLTISNLEQEDIATYFCQQDNTLPYTFGSGTKLELKR
observed-value: 2500
